Measured target: human recombinant PDE7A (hrPDE7A) (Homo sapiens)
Sequence (Q13946 whole entry): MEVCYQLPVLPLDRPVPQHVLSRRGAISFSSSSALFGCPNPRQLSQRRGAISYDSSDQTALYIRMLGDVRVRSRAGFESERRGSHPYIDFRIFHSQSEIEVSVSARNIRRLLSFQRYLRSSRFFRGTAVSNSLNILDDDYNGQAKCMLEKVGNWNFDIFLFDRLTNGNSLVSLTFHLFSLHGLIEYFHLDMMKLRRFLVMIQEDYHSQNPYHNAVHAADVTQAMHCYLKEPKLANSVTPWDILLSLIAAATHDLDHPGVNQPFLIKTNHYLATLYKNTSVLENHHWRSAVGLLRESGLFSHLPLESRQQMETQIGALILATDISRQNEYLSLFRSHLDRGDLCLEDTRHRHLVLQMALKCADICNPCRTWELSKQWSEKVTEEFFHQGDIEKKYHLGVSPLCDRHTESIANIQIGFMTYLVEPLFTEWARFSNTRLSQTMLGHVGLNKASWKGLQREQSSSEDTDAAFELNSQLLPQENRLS
Experiment summary: PDE-Glo Phosphodiesterase Assay, hrPDE7A inhibition
Condition details: hrPDE7A, non-linear regression, in vitro
Test readout: IC50 (µM)
Numbers only, in µM.

Example entries and their recorded answers appear below.
C[C@@H](O)CCCCn1c(=O)c2c(ncn2C)n(C)c1=O [R-(-)-LSF]: 266
CC(C)Cn1c(=O)n(C)c(=O)c2[nH]cnc21: 77.7

Please turn your attention to the following entry.
Problem: # query: IC50 of entry C[C@H](O)CCCCn1c(=O)c2c(ncn2C)n(C)c1=O [S-(+)-LSF]
Solution: 328

###

Experiment summary: Pharmacokinetics after i.v. administration to endotoxemic rats (compartmental modelling)
Type: in vivo, Male Wistar rats
Condition details: male, Wistar, rat, plasma, iv; read-out: ke (rate constant for disappearance of parent compound), final estimate (CV%) (converted)
Test readout: k el (s⁻¹)
One number for each entry, in s⁻¹.

Problem: Quick check: k el of CC(=O)CCCCn1c(=O)c2c(ncn2C)n(C)c1=O ?
Solution: 0.000933

###

Measured target: human recombinant PDE4B (hrPDE4B) (Homo sapiens)
Construct: purchased SignalChem, Richmond, Canada
Sequence (Q07343 whole entry): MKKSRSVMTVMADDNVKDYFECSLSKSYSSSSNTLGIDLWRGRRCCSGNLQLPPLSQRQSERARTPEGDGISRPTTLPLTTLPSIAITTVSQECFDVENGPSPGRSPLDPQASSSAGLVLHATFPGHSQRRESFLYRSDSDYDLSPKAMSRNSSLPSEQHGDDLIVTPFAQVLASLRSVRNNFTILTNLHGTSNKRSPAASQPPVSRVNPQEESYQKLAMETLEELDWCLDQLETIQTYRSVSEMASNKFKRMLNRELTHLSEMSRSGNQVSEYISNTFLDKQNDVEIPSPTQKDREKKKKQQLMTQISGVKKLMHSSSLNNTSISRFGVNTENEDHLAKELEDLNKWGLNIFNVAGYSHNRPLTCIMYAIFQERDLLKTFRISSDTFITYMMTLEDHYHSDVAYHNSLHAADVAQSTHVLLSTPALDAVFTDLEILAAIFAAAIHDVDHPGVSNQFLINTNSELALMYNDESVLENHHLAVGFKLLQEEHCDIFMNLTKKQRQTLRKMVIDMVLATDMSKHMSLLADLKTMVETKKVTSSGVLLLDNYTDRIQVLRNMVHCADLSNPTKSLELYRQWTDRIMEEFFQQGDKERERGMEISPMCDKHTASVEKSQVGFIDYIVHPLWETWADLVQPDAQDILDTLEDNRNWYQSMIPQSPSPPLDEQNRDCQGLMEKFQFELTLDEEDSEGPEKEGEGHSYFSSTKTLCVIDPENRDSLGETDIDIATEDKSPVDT
Experiment summary: PDE-Glo Phosphodiesterase Assay, hrPDE4B inhibition
Assay type: biochemical
Condition details: non-linear regression, in vitro
Would you kindly list IC50 for each of these molecules?
Numbers only, in µM.

Some molecules with recorded IC50:
CC(C)Cn1c(=O)n(C)c(=O)c2[nH]cnc21 [IBMX]: 46.6
C[C@@H](O)CCCCn1c(=O)c2c(ncn2C)n(C)c1=O [R-(-)-LSF]: 49.1

Could you now consider this next molecule?
Problem: Name the recorded IC50 for C[C@H](O)CCCCn1c(=O)c2c(ncn2C)n(C)c1=O [S-(+)-LSF] .
Solution: 52.5

###

Experiment summary: Pharmacokinetics after i.v. administration to endotoxemic rats (compartmental modelling)
Assay type: in vivo, Male Wistar rats
Condition details: male, Wistar, rat, plasma, iv; (±)-LSF parent drug, i.v., endotoxemic rats; read-out: Km (drug concentration at which elimination rate is half-maximal), final estimate (CV%)
Test readout: Km (µg/mL)
One number for each entry, in µg/mL.

Problem: // lookup Km for CC(O)CCCCn1c(=O)c2c(ncn2C)n(C)c1=O (racemic) [(±)-LSF]
Solution: 6.02

###

Tested on: cAMP levels in rat plasma
Experiment summary: PK/PD (IDR model II) of plasma cAMP in LPS-challenged rats
Assay type: in vivo, Male Wistar rats
Condition details: Rattus norvegicus; interaction IDR model II, endotoxemic rats; read-out: IC50 calculated using PK/PD model after conversion to
For each entry below, report its pIC50 value.
Answers are plain numbers, as −log10 of the molar value.

CC(=O)CCCCn1c(=O)c2c(ncn2C)n(C)c1=O [PTX]: 4.79

Problem: Please give the measured pIC50 for this molecule: CC(O)CCCCn1c(=O)c2c(ncn2C)n(C)c1=O (racemic) [(±)-LSF]
Solution: 4.91
